System: HT29 colon
Test: NCI tumour cell line growth inhibition, 48 h
Recorded TGI for the following molecules
endpoint-label: TGI

- N#Cc1ccc(NC(=O)C(CC(=O)OCc2ccccc2)NC(=O)OCc2ccccc2)cc1 (stereo not drawn): > 100 µM
- CN1CCN(c2cc3nsnc3c3nsnc23)CC1: > 10 µM
- CC(C(=O)O)C(C)(O)C(=O)O (stereo not drawn): > 100 µM
- COc1cc(NC(C)=O)ccc1C(=O)NN1C(=O)/C(=C/c2ccco2)N=C1c1ccccc1: > 50 µM
- CCON1CC(C(=O)OC)=C(O)C1=O: > 100 µM
- Nc1ccc(/C=C/C(=O)NCc2cc3cc(-c4ccc(C(=O)N5CCC(F)(F)CC5)cc4)cc(-c4ccc(F)cc4)c3o2)cn1: > 100 µM
- CSC(=S)N/N=C/c1nccc2ccccc12: > 67.5 µM
- C[C@H]1SC(c2ccc(Cl)cc2Cl)N(NC(=O)c2ccncc2)C1=O (stereo partly drawn): > 100 µM
- O=c1oc2ccccc2[n+]([O-])c1-c1ccccc1: > 100 µM
- O=C(N/N=C/c1cccc(F)c1)c1ccncc1: > 100 µM
- CN(C)CCNC(=O)c1cccc2nc(-c3ccccc3)oc12: > 100 µM
- O=C(N[C@@H](C[Se][Se]C[C@H](NC(=O)c1ccc(Br)cc1F)C(=O)O)C(=O)O)c1ccc(Br)cc1F: > 100 µM
- O=c1[nH]nc(Cc2ccccc2)n1/N=C/c1ccncc1: > 100 µM
- CCOC(=O)C(NC(=O)c1nc[nH]c1[N+](=O)[O-])C(C)C (stereo not drawn): > 100 µM
- O=c1[nH]c(Nc2cccc(CO)c2)nc2nc[nH]c12: > 100 µM
- COC(=O)C1=Nc2c(C)nn(-c3ccccc3)c2N=C(c2ccccc2)C1: > 10 µM
- COc1ccc(C(=O)NCCN(C)C)c2nc3ccccc3nc12: 15.1 µM
- COc1ccc2c(c1)/C(=C/c1cc(OC)c(OC)c(OC)c1)C(=O)N2: 21.1 µM
- S=c1cc(-c2ccc3c(c2)OCO3)s[nH]1: > 100 µM
- CC(C)OC(=O)OCSc1ccccc1N=Cc1cccc([N+](=O)[O-])c1: > 10 µM
- COC(=O)C1(C)Cc2cc(OC(C)=O)c(OC(C)=O)cc2N1 (stereo not drawn): 56.7 µM
- CN(C)CCC(=O)/C=C\c1ccccc1: 39.2 µM
- C=C1C(=O)O[C@H]2[C@H]1CC/C(COC(=O)NCC(C)c1ccc(CC(C)C)cc1)=C\CC[C@@]1(C)O[C@@H]21 (stereo partly drawn): 2.52 µM
- COc1ccc(CN2CCC/C=C/CC(Cl)(Cl)C2=O)cc1: > 100 µM
- CCOC(=O)/C(C#N)=C\C=C(/Cl)c1ccc(Cl)cc1: > 100 µM
- CC(=O)OCc1c(O)c2c(c(O)c1COC(C)=O)C(=O)C=CC2=O: 31.6 µM
- c1ccc(N2N=C(c3ccco3)CC2c2ccco2)cc1 (stereo not drawn): > 100 µM
- COc1ccc(CC2COc3cc(O)cc(O)c3C2=O)cc1O (stereo not drawn): 27.5 µM
- COc1ccc(CN2C3CC2CN(c2ccc(-c4cc(OCC(C)(C)O)cn5ncc(C#N)c45)cn2)C3)cn1: > 100 µM
- Cc1ccccc1C(=O)N1CCN(C(=O)c2ccccc2C)CC1: > 100 µM
- CCOC(=O)c1cc2c3c(c(O)c(OC)c2s1)N(C(=O)c1cc2c4c(c(O)c(OC)c2s1)N(C(C)=O)CC4)CC3: > 100 µM
- c1c2c(cc(-n3nnc4c3CCCCCC4)c1-n1nnc3c1CCCCCC3)CCCCCC2: 19.8 µM
- CCCCN(CCCC)C(=O)/C(CC(=O)c1cccc2ccccc12)=N\NC(=O)c1cc2ccccc2cc1O: 57.7 µM
